- Test system: CAKI-1
- method description: NCI tumour cell line growth inhibition, 48 h
Active and inactive are the calls of the source. No stated cut-off is given here; in the data, active = GI50 up to about 1.1 µM and inactive = higher.
Task for the reader: assign each of the following compounds its reported GI50.

Return GI50 measured with CAKI-1 given this compound: "COc1ccc2c(c1)[C@@H]1c3cc(OC)c(OC)cc3CCN1CCC2"
> 100 µM (inactive)

Short answer please: GI50, CAKI-1, entry "c1ccc(CNCCCNCCCCNCCCNCc2ccccc2)cc1"
10.3 µM (inactive)

Query the reported GI50 for CAKI-1; item: CC(=O)Oc1ccc(OC(Oc2ccccc2)c2ccccc2)cc1 (configuration not stated)
20 µM (inactive)

Value wanted: GI50 (CAKI-1) of entry "O=C(CNc1ccc([N+](=O)[O-])cc1)Nn1c(-c2ccccc2)nc2ccccc2c1=O"
2.24 µM (inactive)

Request body: readout GI50, system CAKI-1, query "N#CC(=C1CCN(CCCC(=O)c2ccc(F)cc2)CC1)c1ccccc1" . Return the value.
> 100 µM (inactive)

Param readout = GI50; param system = CAKI-1; param query = "COC(=O)c1c(O)ccc2c1c1c(n2CCc2ccc(OC)c(OC)c2)C(=O)c2ccccc2C1=O" ; response: value
17.5 µM (inactive)

Lab note: need GI50 for "CC(=O)/C(=C\c1ccco1)C(=O)Nc1ccccc1" on CAKI-1, anyone have it?
> 100 µM (inactive)

Short answer please: GI50, CAKI-1, entry "CSC1=Nc2ccccc2N=C(c2ccc(Cl)cc2)C1"
22 µM (inactive)

// map "CCOP(=O)(OCC)/C(=C/c1cccs1)CC(C)=O" to recorded GI50 (system: CAKI-1)
> 100 µM (inactive)

Missing value: GI50, CAKI-1, entry COc1ccc2c(c1)CC1(O)COc3cc(OC)ccc3C1O2 (configuration not stated) . Fill in?
> 100 µM (inactive)

GI50 of "O=C1c2ccccc2C(=O)c2sc(Nc3ccc(Cl)cc3)nc21" on CAKI-1?
1.99 µM (inactive)

CAKI-1 / GI50 / "O=C(c1ccccc1)N1C(=O)N(c2ccccc2)C(=N/c2ccccc2)/C1=N\c1ccccc1" : value?
48.1 µM (inactive)

Report GI50 for "CCNc1ncnc2c1nnn2CC" tested on CAKI-1.
> 100 µM (inactive)

Give the reported GI50 for "OCCCCCNc1nc(O)c2[nH]cnc2n1" (system: CAKI-1).
> 100 µM (inactive)

Field: GI50 (CAKI-1). Entry: "N=S(=O)(c1ccccc1)c1ccccc1"
> 100 µM (inactive)

Find the measured GI50: item "CS(=O)(=O)Nc1ccc(NCc2c[nH]c3ccc4ncccc4c23)cc1" , target or system CAKI-1.
19.6 µM (inactive)

Item "O=c1c2ccccc2n2nnc3ccc(NCCCNCCNCCCNc4ccc5nnn6c7ccccc7c(=O)c4c56)c1c32" with CAKI-1 - GI50?
3.86 µM (inactive)

Please tell me: GI50 of "O=c1oc2c3ccc4ccccc4c3n(CCCN3CCCCC3)c2c2ccccc12" , system CAKI-1?
> 100 µM (inactive)

// lookup GI50 | system=CAKI-1 | key= O=C(Nc1cc(Cl)c(Cl)cc1Cl)C(=O)C(C(=O)c1ccc(Cl)c(Cl)c1)C1OC(=O)c2ccccc21 (configuration not stated)
16.1 µM (inactive)

Lookup: GI50 / CAKI-1 / "Brc1ccc(C2=NCSC(c3ccc(Br)cc3)=N2)cc1"
7.98 µM (inactive)

Identify the measured GI50 of C[n+]1c2ccccc2c(CNC(CCC(N)=O)C(=O)O)c2ccccc21 (configuration not stated) for CAKI-1.
2.36 µM (inactive)

What GI50 appears in the records for this compound with CAKI-1? COC(=O)C(Cc1nc2ccc(Cl)cc2nc1O)C(=O)C(=O)Nc1ccccc1[N+](=O)[O-] (configuration not stated)
> 100 µM (inactive)
